I'd appreciate it if you could supply EC50 values for the items below.
Target: human APJ receptor (Homo sapiens, UniProt P35414)
Construct: expressed in transfected cells
Sequence (P35414 whole entry): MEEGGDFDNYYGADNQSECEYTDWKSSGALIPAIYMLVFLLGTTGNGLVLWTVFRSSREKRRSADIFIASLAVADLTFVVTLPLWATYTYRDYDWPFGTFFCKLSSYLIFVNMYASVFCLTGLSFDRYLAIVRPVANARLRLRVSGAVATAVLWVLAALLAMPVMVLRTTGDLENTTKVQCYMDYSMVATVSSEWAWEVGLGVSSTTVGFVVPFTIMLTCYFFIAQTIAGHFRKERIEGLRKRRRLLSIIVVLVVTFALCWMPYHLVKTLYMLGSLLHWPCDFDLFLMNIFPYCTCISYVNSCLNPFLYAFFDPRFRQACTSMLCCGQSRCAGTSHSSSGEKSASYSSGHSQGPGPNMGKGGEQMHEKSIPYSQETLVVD
Experiment: Intracellular cAMP accumulation assay (APJ hcAMP, HTRF)
Format: cell-based
Conditions: Table 3; HEK293 cells stably expressing human APJ, forskolin-stimulated cAMP; read-out: APJ cAMP EC50

CCOCc1nc(O)c(C(=O)N2CCC(c3ncc(F)cc3F)C2)c(O)c1-c1c(OC)cccc1OC (stereo not shown) [Example 85]
0.01 to 10 nM
CCOCc1nc(O)c(C(=O)N2CCC(c3ncc(F)cc3F)C2)c(O)c1-c1c(OC)cccc1OC (stereo not shown) [Example 84]
0.01 to 10 nM
COc1cccc(OC)c1-c1c(-c2ccc(F)cc2)nc(O)c(C(=O)N2CCC(c3ncc(F)cc3F)C2)c1O (stereo not shown) [Example 87]
0.01 to 10 nM
CCCCc1nc(O)c(C(=O)N2CCC(c3ncc(F)cc3F)C2)c(O)c1-c1c(OC)cccc1OC (stereo not shown) [Example 83]
0.01 to 10 nM
CCCCc1nc(O)c(C(=O)N2CCC(c3ncccc3F)C2)c(O)c1-c1c(OC)cccc1OC (stereo not shown) [Example 81]
0.01 to 10 nM

Provide EC50 values for the following items, in order.
1. CCOCc1nc(O)c(C(=O)N2CCC(c3ccc(Cl)cn3)C2)c(O)c1-c1c(OC)cccc1OC (stereo not shown) [Example 76]
2. CCCCc1nc(O)c(C(=O)N2CCC(c3ccc(Cl)cn3)C2)c(O)c1-c1c(OC)cccc1OC (stereo not shown) [Example 75]
3. CCCCc1nc(O)c(C(=O)N2CCC(c3ccc(F)cn3)C2)c(O)c1-c1c(OC)cccc1OC (stereo not shown) [Example 80]
4. CCCCc1nc(O)c(C(=O)N2CCC(c3ccc(F)cn3)C2)c(O)c1-c1c(OC)cccc1OC (stereo not shown) [Example 79]
5. CCCCc1nc(O)c(C(=O)N2CCC(c3ncccc3F)C2)c(O)c1-c1c(OC)cccc1OC (stereo not shown) [Example 78]

**A:**
0.01 to 10 nM
0.01 to 10 nM
0.01 to 10 nM
0.01 to 10 nM
0.01 to 10 nM

====

I'd appreciate it if you could supply pEC50 values for the items below.
Target: human APJ receptor (Homo sapiens, UniProt P35414)
Construct: expressed in transfected cells
Assay: Intracellular cAMP accumulation assay (APJ hcAMP, HTRF)
Type: cell-based
Conditions: Table 3; HEK293 cells stably expressing human APJ, forskolin-stimulated cAMP; read-out: APJ cAMP EC50
pEC50: −log10 of the molar value.

CCCCc1nc(O)c(C(=O)N2CCC(c3ncc(F)cc3F)C2)c(O)c1-c1c(OC)cccc1OC (stereo not drawn) [Example 82]
8.00 to 11.00
CCOCc1nc(O)c(C(=O)N2CCC(c3ccc(Cl)cn3)C2)c(O)c1-c1c(OC)cccc1OC (stereo not drawn) [Example 77]
8.00 to 11.00

**Q:** Annotate the molecule COc1cccc(OC)c1-c1c(-c2ccc(F)cc2)nc(O)c(C(=O)N2CCC(c3ccccc3F)C2)c1O (stereo not drawn) with its measured pEC50.
**A:** 8.00 to 11.00

The measurements presented in this section are drawn from patent US10392347B2.
